# system: SIRT2 (Homo sapiens, UniProt Q8IXJ6)
# Sequence (Q8IXJ6 whole entry): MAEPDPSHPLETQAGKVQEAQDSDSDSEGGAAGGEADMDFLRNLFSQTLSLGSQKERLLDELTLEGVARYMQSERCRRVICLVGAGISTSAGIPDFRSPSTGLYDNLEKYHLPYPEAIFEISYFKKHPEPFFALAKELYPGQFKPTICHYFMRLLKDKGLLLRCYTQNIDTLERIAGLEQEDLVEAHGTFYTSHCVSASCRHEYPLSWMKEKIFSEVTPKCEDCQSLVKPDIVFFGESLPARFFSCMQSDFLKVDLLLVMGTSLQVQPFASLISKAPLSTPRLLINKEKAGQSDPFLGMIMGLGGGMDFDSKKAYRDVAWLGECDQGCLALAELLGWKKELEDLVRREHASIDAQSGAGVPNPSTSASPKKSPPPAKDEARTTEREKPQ
# procedure_summary: SIRT2 enzymatic assay with fluorogenic p53 peptide substrate RHKK(Ac)-AMC
# Format: biochemical
# condition_set: supplement CSV; SIRT2; 10uM; read-out: Inhibition@10uM

{"compound": "COc1cccc(Cn2cnc3sc4c(c3c2=O)CCC(NCC2CCCO2)C4)c1 (centres unmarked) [25h]", "inhibition at 10 µM / %": 3.44}
{"compound": "COc1cccc(Cn2cnc3sc4c(c3c2=O)CCC(NCc2ccncc2)C4)c1 (centres unmarked) [20h]", "inhibition at 10 µM / %": 57.6}
{"compound": "O=c1c2c3c(sc2ncn1Cc1cccc2cccnc12)CC(NC1CCCC1)CC3 (centres unmarked) [41e]", "inhibition at 10 µM / %": 30.5}
{"compound": "COc1cccc(Cn2cnc3sc4c(c3c2=O)CCC(NCc2ccco2)C4)c1 (centres unmarked) [28h]", "inhibition at 10 µM / %": 33.4}
{"compound": "COc1cccc(Cn2cnc3sc4c(c3c2=O)CCC(NCCc2cccnc2)C4)c1 (centres unmarked) [31h]", "inhibition at 10 µM / %": 40.5}
{"compound": "COc1ccccc1NC1CCc2c(sc3ncn(Cc4cccc(-c5ccccc5)c4)c(=O)c23)C1 (centres unmarked) [35i]", "inhibition at 10 µM / %": 26.4}
{"compound": "COc1cccc(Cn2cnc3sc4c(c3c2=O)CCC(NCc2cncnc2)C4)c1 (centres unmarked) [22h]", "inhibition at 10 µM / %": 18.3}
{"compound": "COc1ccc(CNC2CCc3c(sc4ncn(Cc5c(OC)ccc6ccccc56)c(=O)c34)C2)cn1 (centres unmarked) [23a]", "inhibition at 10 µM / %": 87.9}
{"compound": "O=c1c2c3c(sc2ncn1Cc1ccccc1)CC(NCc1cncnc1)CC3 (centres unmarked) [22g]", "inhibition at 10 µM / %": 17.5}
{"compound": "COc1ccccc1NC1CCc2c(sc3ncn(Cc4cccc5ccccc45)c(=O)c23)C1 (centres unmarked) [35b]", "inhibition at 10 µM / %": 22.3}
{"compound": "COc1cccc(Cn2cnc3sc4c(c3c2=O)CCC(NCc2ccccn2)C4)c1 (centres unmarked) [21h]", "inhibition at 10 µM / %": 18.2}
{"compound": "COc1cccc(Cn2cnc3sc4c(c3c2=O)CCC(NCc2c(C)nn(C)c2C)C4)c1 (centres unmarked) [27h]", "inhibition at 10 µM / %": 14.4}
{"compound": "O=c1c2c3c(sc2ncn1Cc1ccccc1)CC(NCc1ccncc1)CC3 (centres unmarked) [20g]", "inhibition at 10 µM / %": 32.6}
{"compound": "COc1ccc(Cn2cnc3sc4c(c3c2=O)CCC(NCc2cccc(Cl)c2)C4)c2ccccc12 (centres unmarked) [12c]", "inhibition at 10 µM / %": -6.5}
{"compound": "O=c1c2c3c(sc2ncn1Cc1cccc(-c2ccccc2)c1)CC(NC1CCCc2ccccc21)CC3 (centres unmarked) [46i]", "inhibition at 10 µM / %": 21.6}
{"compound": "COc1cccc(NC2CCc3c(sc4ncn(Cc5cccc(-c6ccccc6)c5)c(=O)c34)C2)c1 (centres unmarked) [37i]", "inhibition at 10 µM / %": 29.6}
{"compound": "O=c1c2c3c(sc2ncn1Cc1ccccc1)CC(NCCc1cccnc1)CC3 (centres unmarked) [31g]", "inhibition at 10 µM / %": 26.7}
